All values here come from patent US20240423995A1.

Target: SYK (Homo sapiens, UniProt P43405)
Construct: purchased Eurofins DiscoverX Corporation
Experiment: KINOMEscan competition binding screen, SYK
Conditions: read-out: % Ctrl @ 10 μM
assay.endpoint: remaining binding at 10 µM (%)

structure.smiles.string	remaining binding at 10 µM [%]
Cc1cccc(-c2cc3nccc(N4CCOCC4)c3s2)c1	44

[1] Cc1cccc(-c2cc3nccc(Nc4cccc(O)c4)c3s2)c1
[2] Cc1cccc(-c2cc3nccc(Nc4ccccc4)c3s2)c1
[3] COc1cccc(Nc2ccnc3cc(-c4cccc(C)c4)sc23)c1
Q. Number of compounds to sort: 3. Sort criterion: remaining binding at 10 µM, ascending. State the ranking by listing the labels in the requested order.
A. 1, 2, 3
(1: 2.3%, 2: 5.5%, 3: 12%)

----------
Target: KIT (D816H) (Homo sapiens, UniProt P10721, D816H)
Construct: purchased Eurofins DiscoverX Corporation
Sequence (P10721 26-976 D816H): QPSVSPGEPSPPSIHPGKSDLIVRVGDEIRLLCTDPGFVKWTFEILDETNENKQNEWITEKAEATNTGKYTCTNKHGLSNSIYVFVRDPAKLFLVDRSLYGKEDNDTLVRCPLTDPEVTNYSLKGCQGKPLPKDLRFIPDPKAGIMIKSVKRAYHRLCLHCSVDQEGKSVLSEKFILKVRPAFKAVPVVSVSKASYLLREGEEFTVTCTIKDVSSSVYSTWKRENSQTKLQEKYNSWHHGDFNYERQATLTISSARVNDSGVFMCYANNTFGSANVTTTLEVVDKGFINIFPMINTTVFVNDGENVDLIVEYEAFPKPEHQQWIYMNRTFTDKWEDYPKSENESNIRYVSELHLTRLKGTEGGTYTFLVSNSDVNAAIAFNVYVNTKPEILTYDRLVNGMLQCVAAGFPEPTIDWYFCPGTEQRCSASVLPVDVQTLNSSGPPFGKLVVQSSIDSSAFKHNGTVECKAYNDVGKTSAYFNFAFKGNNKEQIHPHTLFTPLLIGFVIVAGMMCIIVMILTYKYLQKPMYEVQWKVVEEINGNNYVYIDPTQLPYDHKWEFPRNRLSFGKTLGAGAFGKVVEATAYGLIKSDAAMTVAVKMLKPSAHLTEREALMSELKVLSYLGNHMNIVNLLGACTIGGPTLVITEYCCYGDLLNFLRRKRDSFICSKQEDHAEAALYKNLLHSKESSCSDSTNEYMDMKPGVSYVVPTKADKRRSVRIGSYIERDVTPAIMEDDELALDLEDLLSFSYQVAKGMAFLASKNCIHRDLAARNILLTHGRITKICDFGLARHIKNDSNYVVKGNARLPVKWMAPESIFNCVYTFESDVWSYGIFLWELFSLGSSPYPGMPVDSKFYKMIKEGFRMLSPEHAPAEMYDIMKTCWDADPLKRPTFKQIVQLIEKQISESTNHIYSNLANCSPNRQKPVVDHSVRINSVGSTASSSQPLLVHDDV
Experiment: KINOMEscan competition binding screen, KIT (D816H)
assay.endpoint: inhibition at 10 µM (%)

As a guide, the following entries are already answered.
molecule	tgt	reading.unit	inhibition at 10 µM
Cc1cccc(-c2cc3nccc(Nc4cccc(O)c4)c3s2)c1 [BK40196]	KIT (D816H) (Homo sapiens, UniProt P10721, D816H)	%	94.1
Cc1cccc(-c2cc3nccc(N4CCOCC4)c3s2)c1 [BK40197]	KIT (D816H) (Homo sapiens, UniProt P10721, D816H)	%	0

[I] COc1cccc(Nc2ccnc3cc(-c4cccc(C)c4)sc23)c1 [BK40195]
[II] Cc1cccc(-c2cc3nccc(Nc4ccccc4)c3s2)c1 [BK40143]
Q. When the recorded inhibition at 10 µM values are compared, which is smaller: that of I or that of II ? Please identify the chosen entry by its label.
A. II
(II: 54%, I: 93.9%)

----------
Molecular target: UniProt P10721
assay.endpoint: pIC50
As a rule, pIC50 stands for the negative log10 of the concentration, concentration in M.

Q. # query: pIC50 | item Cc1cccc(-c2cc3nccc(Nc4cccc(O)c4)c3s2)c1 | system: UniProt P10721
A. 6.56
